Test system: parental HEK cells
PROTOCOL: HEK parental Agonist Counterscreen Assay (non-transfected cells)
Format: cell-based
PARTICULARS: Homo sapiens, HEK293; HEK Agonist Activity section of Table 4 (parental HEK counterscreen)
MEASUREMENT_KIND: EC50

O=C(Cn1ncn2c(cc3sccc32)c1=O)NCCc1ccc(Cl)cc1 | > 14.1 µM

Please give EC50 for each item listed below.
1. Cc1ccc(NC(=O)NCCCc2ccccc2)cc1
2. CS(=O)(=O)c1cccc(C(=O)NCCCN2CCc3ccccc32)c1

Result:
> 14.1 µM
> 14.1 µM

Please give EC50 for each item listed below.
1. O=C(Cn1ncc2c(Cl)cccc21)NCCc1ccc(Cl)cc1
2. O=C1N2CN(Cc3ccccc3)CN3C(=O)N4CN(Cc5ccccc5)CN1C4C23 (stereo not shown)
3. CN(C)C(CNC(=O)Nc1ccc(Cl)c(Cl)c1)c1cccnc1 (stereo not shown)

Result:
1: > 14.1 µM; 2: > 14.1 µM; 3: > 14.1 µM

---

TARGET_ENTITY: GPR139 (Homo sapiens, UniProt Q6DWJ6)
Sequence (Q6DWJ6 1-353): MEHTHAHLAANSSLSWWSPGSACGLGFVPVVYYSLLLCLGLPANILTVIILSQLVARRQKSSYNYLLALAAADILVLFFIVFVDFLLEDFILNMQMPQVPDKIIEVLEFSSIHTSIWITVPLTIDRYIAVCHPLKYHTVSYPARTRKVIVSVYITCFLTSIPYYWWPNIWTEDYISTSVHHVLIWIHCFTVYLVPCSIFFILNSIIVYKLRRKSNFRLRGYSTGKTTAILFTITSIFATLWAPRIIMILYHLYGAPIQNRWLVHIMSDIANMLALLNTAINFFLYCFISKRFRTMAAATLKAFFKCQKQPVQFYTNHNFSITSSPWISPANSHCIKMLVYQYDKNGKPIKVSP
PROTOCOL: GPR139 Agonist titration / agonist counterscreen assay (calcium detection, HEK-GPR139 cells)
Assay type: cell-based
Design: expressed in transfected cells; host or cells: HEK Aequorin cells, Maxcyte transient transfection
PARTICULARS: GPR139 Agonist Activity; ligand efficiency
MEASUREMENT_KIND: Efficiency Ligand
Numbers only.

Worked cases, answers included:
O=C(COc1ccccc1Cl)NNC(=O)CSc1ccc2ccccc2c1 | 0.39
CCc1nn(CC(=O)NCc2cccc(Br)c2)c(=O)c2cc3occc3n12 | 0.39
COc1cc(C(=O)NCCn2ccc3ccccc32)cc(OC)c1OC | 0.39

Please give Efficiency Ligand for each item listed below.
1. Cc1ccccc1CS(=O)(=O)CCC(=O)NC(C)c1ccccc1 (centres unmarked)
2. Cc1ccccc1C(=O)NNC(=O)C(C)Oc1ccc(Cl)cc1Cl (centres unmarked)

Result:
[0.40, 0.41]

---

I'd be grateful if you could share measured Lipophilic Efficiency (logD) for these entries.
Tested on: parental HEK cells
PROTOCOL: HEK parental Agonist Counterscreen Assay (non-transfected cells)
Format: cell-based
PARTICULARS: HEK Agonist Activity
Give bare numbers.

Worked cases, answers included:
CC(Oc1ccc(O)cc1Cl)C(=O)NNC(=O)c1cccc(F)c1 (stereo not drawn) | 1.31
COc1ccc(NC(=O)NCCOc2cccc3ccccc23)cc1OC | 1.43
CCC1Cc2ccc(C)cc2CC1C(=O)Nc1ccc(-c2cn[nH]c2)cc1OCCN(C)C (stereo not drawn) | 3.12
CCc1cccc(NC(=O)Cn2ncc3c2-c2ccccc2OC3)c1 | 1.42
COc1cccc(C(=O)NNC(=O)CCCOc2ccc(Cl)cc2Cl)c1 | 1.53
CC1CCC(NC(=O)CCC(=O)N2CCSc3ccccc32)CC1 (stereo not drawn) | 2.25

Please give Lipophilic Efficiency (logD) for each item listed below.
1. Cc1cccc(CCNC(=O)c2c[nH]c3cc(-c4cn[nH]c4)ccc23)c1
2. COc1ccc(CCNC(=O)Nc2ccc3c(c2)CCCN3C(=O)C2CC2)cc1
3. O=C(COc1ccccc1F)NNC(=O)CSc1ccc2ccccc2c1

Result:
[2.30, 1.53, 1.82]
